Record form. Attribute: fraction unbound at 5 h. Fill in for each entry.
test_description: in vitro
measurement_conditions: human, plasma, PPB

>>> df
                                   compound        quantity_measured  data_value
0  CC(O)(C(=O)Nc1cccc(S(=O)(=O)c2ccccc2)c1)C(F)(F)F (centres undefined)  fraction unbound at 5 h      0.0909

Record fraction unbound at 5 h for all entries; do not skip any.
1. CNc1c(Br)cnc2nc(-c3ccnc(N)c3)[nH]c12
2. CC(C)(C)NC(=O)NCCN1CCCC(NC(=O)c2cc(Cl)cc(Cl)c2)C1 (centres undefined)
3. COc1cc(C)c(S(=O)(=O)N(C)CCOCC(=O)N2CCC(C3CCN(C)CC3)CC2)c(C)c1
4. CN[C@@H](C)C(=O)N[C@H](C(=O)N[C@H]1CCCN(CCc2ccc(F)cc2)C1)C1CCCCC1
5. Cc1cc(Oc2ncc(C(F)(F)F)cc2Cl)ccc1CC1SC(=O)NC1=O (centres undefined)
6. CC(C)(C)OC(=O)NC[C@H]1CC[C@H](CNC(=O)c2cc(N3CCC(CCN4CC(O)C4)CC3)nc3ccccc23)CC1
7. CC1=C(C(=O)OCc2ccccc2)C(c2cccs2)NC(=O)N1 (centres undefined)
8. O=C(NS(=O)(=O)c1ccccc1)N1CCC(N2CCC(Oc3ccc(Cl)c(Cl)c3)CC2)CC1

output:
[0.0268, 0.028, 0.483, 0.266, 0.0006, 0.03, 0.0268, 0.186]

---

test_description: in vitro
measurement_conditions: human, plasma, PPB
Residues, ends and D or L forms follow the SMILES beside them.
Just so you know, the groups by fraction unbound at 5 h go like this: range 1 (below 0.05), range 2 (0.05 to below 0.3), range 3 (0.3 or more)

compound	cat
NC(=O)Nc1sc(-c2ccc(CN3CCCCC3)cc2)cc1C(N)=O	range 3

input: Category of `COc1cc(-n2cnc3cc(-c4ccc(Cl)cc4)sc3c2=O)ccc1OC[C@H](OP(=O)(O)O)C1CC1` , please.
output: range 1

input: Category of CC(=O)N[C@@H](CCN)C(=O)N[C@H](C(=O)N[C@@H](CCN)C(=O)N[C@H]1CCNC(=O)[C@H]([C@@H](C)O)NC(=O)[C@H](CCN)NC(=O)[C@H](CCN)NC(=O)[C@H](CC(C)C)NC(=O)[C@@H](Cc2ccccc2)NC(=O)[C@H](CCN)NC1=O)[C@@H](C)O [DEACYL POLYMYXIN B] (HELM PEPTIDE1{[ac].[Dab].T.[Dab].[Dab].[Dab].[dF].L.[Dab].[Dab].T}$PEPTIDE1,PEPTIDE1,5:R3-11:R2$$$V2.0) , please.
output: range 3

input: Category of `O=C(NCC12CC3CC(CC(C3)C1)C2)c1cc(CN2CCNCC2)ccc1Cl` , please.
output: range 2

input: Category of `Cc1ccc(S(=O)(=O)Nc2c(C(=O)N[C@@H](C)C(C)(C)C)c(C(F)(F)F)nn2-c2ccccc2)cc1` , please.
output: range 1

input: Category of `CO[C@H]1CN(CCn2c(=O)ccc3ccc(C#N)cc32)CC[C@H]1NCc1ccc2c(n1)NC(=O)CO2` , please.
output: range 3

input: Category of `Cc1ncc(-c2nc(Nc3ccc(C(=O)N4CC[C@H](N(C)C)C4)cc3)ncc2F)n1C(C)C` , please.
output: range 2

input: Category of `COc1ccc2ncc(=O)n(CCN3CC[C@@H](NCc4ccc5c(n4)NC(=O)CO5)[C@H](OC)C3)c2c1` , please.
output: range 2

Data origin: ChEMBL document CHEMBL3301361
